Attribution: ChEMBL document CHEMBL4371047

# System: Human immunodeficiency virus 1
# procedureText: Resistance index, ratio of ID50 for recombinant HIV-1 His-tagged reverse transcriptase p66/p51 K103N mutant to ID50 for recombinant wild type HIV-1 reverse transcriptase His-tagged p66/p51
measurementName: Ratio

molecule="CCCNc1nc(C(OC)c2c(F)cccc2Cl)c(C)c(=O)[nH]1 (stereo unspecified)" targetundertest="Human immunodeficiency virus 1" measurementname=Ratio valuemeasured=8
molecule="COC(c1nc(NC(C)C)[nH]c(=O)c1C)c1c(Cl)cccc1Cl (stereo unspecified)" targetundertest="Human immunodeficiency virus 1" measurementname=Ratio valuemeasured=15
molecule="CCCN(C)c1nc(C(C)c2c(F)cccc2F)c(C)c(=O)[nH]1 (stereo unspecified)" targetundertest="Human immunodeficiency virus 1" measurementname=Ratio valuemeasured=6
molecule="COC(c1nc(SC2CCCC2)[nH]c(=O)c1C)c1c(F)cccc1F (stereo unspecified)" targetundertest="Human immunodeficiency virus 1" measurementname=Ratio valuemeasured=19
molecule="COC(c1nc(NC2CCCC2)[nH]c(=O)c1C)c1c(F)cccc1F (stereo unspecified)" targetundertest="Human immunodeficiency virus 1" measurementname=Ratio valuemeasured=3
molecule="Cc1c(C(C)c2c(F)cccc2F)nc(NC(C)C)[nH]c1=O (stereo unspecified)" targetundertest="Human immunodeficiency virus 1" measurementname=Ratio valuemeasured=11

====

# Tested on: Human immunodeficiency virus type 1 reverse transcriptase (Human immunodeficiency virus 1), Q72547 [K103N]
This listing pairs molecules with measured ID50.
measurementName: ID50 (nM)

molecule="CCC(C)Sc1nc(C(CC)c2c(F)cccc2Cl)c(C)c(=O)[nH]1 (stereo unspecified)" valuemeasured=450
molecule="COC(c1nc(NC(C)C)[nH]c(=O)c1C)c1c(F)cccc1Cl (stereo unspecified)" valuemeasured=1600
molecule=CO[C@@H](c1nc(SC(C)C)[nH]c(=O)c1C)c1c(F)cccc1Cl valuemeasured=35
molecule="Cc1c(C(C)c2c(F)cccc2F)nc(NC(C)C)[nH]c1=O (stereo unspecified)" valuemeasured=400
molecule="COC(c1nc(NC2CCCC2)[nH]c(=O)c1C)c1c(F)cccc1F (stereo unspecified)" valuemeasured=39
molecule="CCC(C)Sc1nc(C(OC)c2c(Cl)cccc2Cl)c(C)c(=O)[nH]1 (stereo unspecified)" valuemeasured=3700
molecule="CCC(C)Sc1nc(O)c(C)c(C(C)c2c(F)cccc2F)n1 (stereo unspecified)" valuemeasured=1700
molecule="COC(c1nc(NC2CCCC2)[nH]c(=O)c1C)c1c(F)cccc1Cl (stereo unspecified)" valuemeasured=120
molecule="COC(c1nc(NC(C)C)[nH]c(=O)c1C)c1c(Cl)cccc1Cl (stereo unspecified)" valuemeasured=5200
molecule="CCCNc1nc(C(C)c2c(F)cccc2F)c(C)c(=O)[nH]1 (stereo unspecified)" valuemeasured=470

====

Each entry below carries its reported log10 ID50.
# System: Human immunodeficiency virus type 1 reverse transcriptase (Human immunodeficiency virus 1), Q72547 [K103N]
measurementName: log10 ID50 (log10 of the value in nM)

molecule="CCC(c1nc(SC2CCCC2)[nH]c(=O)c1C)c1c(F)cccc1Cl (configuration not stated)" measurementname="log10 ID50" valuemeasured=2.53
molecule="Cc1c(C(C)c2c(F)cccc2Cl)nc(SC2CCCC2)[nH]c1=O (configuration not stated)" measurementname="log10 ID50" valuemeasured=3.11
molecule="CCCNc1nc(C(OC)c2c(Cl)cccc2Cl)c(C)c(=O)[nH]1 (configuration not stated)" measurementname="log10 ID50" valuemeasured=3.20
molecule="COC(c1nc(SC(C)C)[nH]c(=O)c1C)c1c(F)cccc1F (configuration not stated)" measurementname="log10 ID50" valuemeasured=2.11
molecule="CCC(C)Sc1nc(C(OC)c2c(F)cccc2Cl)c(C)c(=O)[nH]1 (configuration not stated)" measurementname="log10 ID50" valuemeasured=1.08
molecule="COC(c1nc(SC2CCCC2)[nH]c(=O)c1C)c1c(F)cccc1Cl (configuration not stated)" measurementname="log10 ID50" valuemeasured=2.18
molecule=Cc1c([C@@H](C)c2c(F)cccc2F)nc(SC2CCCC2)[nH]c1=O measurementname="log10 ID50" valuemeasured=2.73
molecule="CCCN(C)c1nc(C(OC)c2c(F)cccc2Cl)c(C)c(=O)[nH]1 (configuration not stated)" measurementname="log10 ID50" valuemeasured=2.46
molecule="COC(c1nc(NC(C)C)[nH]c(=O)c1C)c1c(F)cccc1F (configuration not stated)" measurementname="log10 ID50" valuemeasured=2.79
molecule="CCCNc1nc(C(OC)c2c(F)cccc2Cl)c(C)c(=O)[nH]1 (configuration not stated)" measurementname="log10 ID50" valuemeasured=2.73
molecule="CCCN(C)c1nc(C(OC)c2c(F)cccc2F)c(C)c(=O)[nH]1 (configuration not stated)" measurementname="log10 ID50" valuemeasured=2.18
molecule="CCC(c1nc(SC2CCCC2)[nH]c(=O)c1C)c1c(F)cccc1F (configuration not stated)" measurementname="log10 ID50" valuemeasured=2.58
molecule="CCC(C)Sc1nc(C(OC)c2c(F)cccc2F)c(C)c(=O)[nH]1 (configuration not stated)" measurementname="log10 ID50" valuemeasured=3.18
molecule="COC(c1nc(SC2CCCC2)[nH]c(=O)c1C)c1c(F)cccc1F (configuration not stated)" measurementname="log10 ID50" valuemeasured=2.41
molecule="Cc1c(C(C)c2c(F)cccc2F)nc(SC2CCCC2)[nH]c1=O (configuration not stated)" measurementname="log10 ID50" valuemeasured=2.48
molecule=CO[C@H](c1nc(SC(C)C)[nH]c(=O)c1C)c1c(F)cccc1Cl measurementname="log10 ID50" valuemeasured=2.98
molecule="Cc1c(C(C)c2c(F)cccc2F)nc(NC2CCCC2)[nH]c1=O (configuration not stated)" measurementname="log10 ID50" valuemeasured=2.58
molecule="CCC(c1nc(SC(C)C)[nH]c(=O)c1C)c1c(F)cccc1F (configuration not stated)" measurementname="log10 ID50" valuemeasured=2.49
molecule="COC(c1nc(SC(C)C)[nH]c(=O)c1C)c1c(Cl)cccc1Cl (configuration not stated)" measurementname="log10 ID50" valuemeasured=3.97
molecule="COC(c1nc(NC2CCCC2)[nH]c(=O)c1C)c1c(Cl)cccc1Cl (configuration not stated)" measurementname="log10 ID50" valuemeasured=2.73
molecule=CCCN(C)c1nc([C@@H](OC)c2c(Cl)cccc2Cl)c(C)c(=O)[nH]1 measurementname="log10 ID50" valuemeasured=2.64
molecule="CCC(c1nc(SC(C)C)[nH]c(=O)c1C)c1c(F)cccc1Cl (configuration not stated)" measurementname="log10 ID50" valuemeasured=2.62
